test system: Fibroblast; assay: Multiplex assay against human fibroblast; type: toxicity, cell-based; conditions: 24 h, 10 µM, compound concentration 10 uM, replicate 1
OBSERVABLE: Population Apoptotic (%)
Hi! Could you send only the number? It should be in %, unit omitted.

// fetch Fibroblast Population Apoptotic (%) for CC(C)NC(=O)N1CC[C@H](NC2=Nc3cc(F)ccc3N(CC(F)F)c3ccc(Cl)cc32)C1
64

---

test system: U2OS; assay: Multiplex assay against U2OS; assay type: toxicity, cell-based; conditions: human, 24 h, 1 µM, compound concentration 1 uM, replicate 2
We begin with a simple list: items and their reported Population Pyknosed Nuclei (%).
Hi! Could you send only the number? It should be in %, unit omitted.

- COMPOUND: "COC(=O)C1=C(C)NC(C)=C(C(=O)OCCCN2CCC(c3ccccc3)(c3ccccc3)CC2)[C@H]1c1cccc([N+](=O)[O-])c1"
  ASSAYED TARGET: "U2OS"
  UNIT ABBREV: "%"
  QUANTITATIVE RESULT: 27
- COMPOUND: "CCCSc1nc(N[C@@H]2C[C@H]2c2ccc(F)c(F)c2)c2nnn([C@@H]3C[C@H](OCCO)[C@@H](O)[C@H]3O)c2n1"
  ASSAYED TARGET: "U2OS"
  UNIT ABBREV: "%"
  QUANTITATIVE RESULT: 8
- COMPOUND: "CC(C)c1noc(N2CCC(COc3ccc(-c4ccc(S(C)(=O)=O)cc4)nc3)CC2)n1"
  ASSAYED TARGET: "U2OS"
  UNIT ABBREV: "%"
  QUANTITATIVE RESULT: 2
- COMPOUND: "CC(C)CC(=O)Nc1[nH]nc2c1CN(C(=O)C1CCN(C)CC1)C2(C)C"
  ASSAYED TARGET: "U2OS"
  UNIT ABBREV: "%"
  QUANTITATIVE RESULT: 4
- COMPOUND: "CC(C)OC(=O)N1CCC(Oc2ncnc3c2cnn3-c2ccc(S(C)(=O)=O)cc2F)CC1"
  ASSAYED TARGET: "U2OS"
  UNIT ABBREV: "%"
  QUANTITATIVE RESULT: 8
- COMPOUND: "C=CC(=O)Nc1ccc2[nH]c(=O)n(C3CCN(Cc4ccc(-c5nc6cc[nH]c(=O)c6cc5-c5ccccc5)cc4)CC3)c2c1"
  ASSAYED TARGET: "U2OS"
  UNIT ABBREV: "%"
  QUANTITATIVE RESULT: 6

Sample C[C@]12CC[C@@H]3c4ccc(O)cc4CC[C@H]3[C@@H]1CC[C@@H]2O — what was its Population Pyknosed Nuclei (%)?
6

How about this compound: Cl.O=C(O)c1cc(-c2ccc(C3CCNCC3)cc2)c2ccc(-c3ccc(C(F)(F)F)cc3)cc2c1
9

How about this compound: C=CC(=O)Nc1cccc(Oc2nc(Nc3ccc(N4CCN(C)CC4)cc3OC)ncc2Cl)c1
47

How about this compound: Cc1cccc(CN2CCN(C(c3ccccc3)c3ccc(Cl)cc3)CC2)c1.Cl.Cl (stereo not drawn)
8

How about this compound: O=c1[nH]c2ccccc2n1C1CCN(Cc2ccc(-c3[nH]c4cc5ncnc5cc4nc3-c3ccccc3)cc2)CC1
11

How about this compound: COc1ccc(-c2ccc3ncc4c(c3c2)n(-c2ccc(N3CCNCC3)c(C(F)(F)F)c2)c(=O)n4C)cn1.O=C(O)/C=C\C(=O)O
40

How about this compound: CC(C)(C)NC[C@H](O)COc1nsnc1N1CCOCC1
6
